Numbers sourced from the MegaScale stability set (Tsuboyama et al. 2023).

B1: r11_951_TrROS_Hall (parent)
chain: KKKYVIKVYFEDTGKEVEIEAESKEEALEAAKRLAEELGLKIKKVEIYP

- Variants of: B1
- Procedure text: folding stability dG (cDNA display proteolysis); higher = more stable
- Condition info: PBS, room temperature
Quantity: folding stability dG (kcal/mol)
Numbers only, in kcal/mol.

[
  {
    "Primary sequence": "KKKYVIKVYFEDTGKEAEIEAESKEEALEAAKRLAEELGLKIKKVEIYP",
    "Measurement": 4.23
  },
  {
    "Primary sequence": "KKKYVIRVYFEDTGKEVEIEAESKEEALEAAKRLAEELGLKIKKVEIYP",
    "Measurement": 4.64
  },
  {
    "Primary sequence": "KKKYVIKVYFEDTGKEVEIEAESKEEALEYAKRLAEELGLKIKKVEIYP",
    "Measurement": 4.89
  },
  {
    "Primary sequence": "KKKYVIKVYFEDTGKEVEIEAESKREALEAAKRLAEELGLKIKKVEIYP",
    "Measurement": 4.22
  }
]

Each of the following entries comes with a recorded value; kindly state folding stability dG for each.
1. KKKYVIKVYFEDTGKEVEIEAESKEEALEAAKRLAEELGLKIKKVVIYP
2. KKKYVIKVYFEDTGKEVEIEAESKEEALEAAKRWAEELGLKIKKVEIYP
3. KKKYVIAVYFEDTGKEVEIEAESKEEALEAAKRLAEELGLKIKKVEIYP

Result:
4.66
4.57
3.95

Return reported folding stability dG values for all items listed beneath this line.
1. KKKYFIKVYFEDTGKEVEIEAESKEEALEAAKRLAEELGLKIKKVEIYP
2. KKKYVIKVYFEDTGKEVEIEAESKEEALEAAKRLAEELGLKIKKVRIYP
3. KKKYVIKVYFEDTGWEVEIEAESKEEALEAAKRLAEELGLKIKKVEIYP

Result:
1: 4.42; 2: 4.16; 3: 4.23
